Where do these numbers come from? They come from patent US9040663B2.

Target Or Test System: UniProt P32245
Assay Remarks: High and low density hMC4-R functional assay (cAMP, HEK293-T-REx-MC4-R cells)
Assay type: cell-based
Assay Context: 0.1 ng/mL Doxycycline (low density hMC4-R system)
Would you kindly list EC50 for each of these molecules?
Answer format: numeric, nM implied, no suffix.

Request: Item "CC(=O)N[C@H](CCCNC(=N)N)C(=O)N[C@H]1CC(=O)NCCCC[C@@H](C(N)=O)NC(=O)[C@H](Cc2c[nH]c3ccccc23)NC(=O)[C@H](CCCNC(=N)N)NC(=O)[C@@H](Cc2ccccc2F)NC(=O)[C@H](CCC(N)=O)NC1=O" : provide EC50
Result: 2

Request: Consider the molecule "CC(=O)N[C@H](CCCNC(=N)N)C(=O)N[C@H]1CCCNC(=O)CC[C@@H](C(N)=O)NC(=O)[C@H](Cc2c[nH]c3ccccc23)NC(=O)[C@H](CCCNC(=N)N)NC(=O)[C@@H](Cc2ccc(F)cc2)NC(=O)[C@H](Cc2c[nH]cn2)NC1=O" . State its measured EC50.
Result: 0.25

Request: Quote EC50 reported for "CC(=O)N[C@@H](CCCNC(=N)N)C(=O)N[C@H]1CCC(=O)NCCC[C@@H](C(=O)O)NC(=O)[C@H](Cc2c[nH]c3ccccc23)NC(=O)[C@H](CCCNC(=N)N)NC(=O)[C@@H](Cc2ccc(C#N)cc2)NC(=O)[C@H](CC(N)=O)NC1=O" please.
Result: 15

Request: Give the value of EC50 reported for the following: "CC(=O)N[C@@H](CCCNC(=N)N)C(=O)N[C@H]1CCCNC(=O)CC[C@@H](C(N)=O)NC(=O)[C@H](Cc2c[nH]c3ccccc23)NC(=O)[C@H](CCCNC(=N)N)NC(=O)[C@@H](Cc2cccc(C)c2)NC(=O)[C@H](CC(N)=O)NC1=O"
Result: 3

* * *

Target Or Test System: hMC4-R (Homo sapiens (Human))
Assay Remarks: High and low density hMC4-R functional assay (cAMP, HEK293-T-REx-MC4-R cells)
Format: cell-based
Assay Context: 0.1 ng/mL Doxycycline (low density hMC4-R system); NDP-α-MSH = 100%; read-out: Intrinsic Activity (%)
Positions of bridges follow the written chain, without caps; N, C: chain ends. Non-standard residues stand in square brackets, D forms with d. Residues, ends and D or L forms follow the SMILES beside them. dPhe(4-CN) = N#Cc1ccc(C[C@@H](N)C(=O)O)cc1
Measured Property: Emax (%)
# output: bare number, implied unit %

Request: Supply measured Emax of "CC(=O)N[C@@H](CCCNC(=N)N)C(=O)N[C@H]1CCC(=O)NCCC[C@@H](C(N)=O)NC(=O)[C@H](Cc2c[nH]c3ccccc23)NC(=O)[C@H](CCCNC(=N)N)NC(=O)[C@@H](Cc2ccc(O)cc2)NC(=O)[C@H](CCN)NC1=O" in your reply.
Result: 71

Request: Look up and state reported Emax for CC(=O)N[C@@H](CCCNC(=N)N)C(=O)N[C@H]1CCCCNC(=O)C[C@@H](C(N)=O)NC(=O)[C@H](Cc2c[nH]c3ccccc23)NC(=O)[C@H](CCCNC(=N)N)NC(=O)[C@@H](Cc2ccc(C#N)cc2)NC(=O)[C@H](CCC(N)=O)NC1=O [Example 93] (Ac-RKQ[dPhe(4-CN)]RWD-NH2; lactam 2-7)
Result: 44

Request: Supply measured Emax of "CC(=O)N[C@@H](CCCNC(=N)N)C(=O)N[C@H]1CCCNC(=O)CC[C@@H](C(N)=O)NC(=O)[C@H](Cc2c[nH]c3ccccc23)NC(=O)[C@H](CCCNC(=N)N)NC(=O)[C@@H](Cc2cc(F)c(F)c(F)c2)NC(=O)[C@H](CC(N)=O)NC1=O" in your reply.
Result: 24

Request: Read off the recorded Emax for "CC(=O)N[C@@H](CCCNC(=N)N)C(=O)N[C@H]1CCC(=O)NCCC[C@@H](C(N)=O)NC(=O)[C@H](Cc2c[nH]c3ccccc23)NC(=O)[C@H](CCCNC(=N)N)NC(=O)[C@@H](Cc2ccc(C#N)cc2)NC(=O)[C@H](CCC(N)=O)NC1=O"
Result: 40

* * *

Target Or Test System: hMC4-R (Homo sapiens (Human), UniProt P32245)
Sequence (P32245 whole entry): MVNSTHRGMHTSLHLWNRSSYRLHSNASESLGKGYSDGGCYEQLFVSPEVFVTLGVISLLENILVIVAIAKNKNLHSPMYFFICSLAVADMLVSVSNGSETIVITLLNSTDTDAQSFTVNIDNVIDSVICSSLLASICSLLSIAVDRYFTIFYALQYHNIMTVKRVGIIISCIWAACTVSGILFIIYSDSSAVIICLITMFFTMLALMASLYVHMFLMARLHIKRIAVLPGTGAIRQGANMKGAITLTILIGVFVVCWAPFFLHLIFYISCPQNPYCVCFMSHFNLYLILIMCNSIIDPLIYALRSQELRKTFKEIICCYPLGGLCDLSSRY
Assay Remarks: High and low density hMC4-R functional assay (cAMP, HEK293-T-REx-MC4-R cells)
Type: cell-based
Assay Context: 0.1 ng/mL Doxycycline (low density hMC4-R system)
Method: The cells were then dispensed into 96-well plates (BD 353916) in 198 μL (about 5×10^4) cells/well and incubated for 10 minutes at 37° C. The compound to be tested was diluted with DMSO to a final concentration of 1 mM. […] 120 μL of the 1 mM compound stock was pipetted in the second column on the plate. […] All assay samples were run in duplicate (i.e. each sample was in two low dox and two high dox plates, respectively). The plates were gently shaken and incubated for 15 minutes at 37° C.
pEC50: −log10 of the molar value. Positions of bridges follow the written chain, without caps; N, C: chain ends. Non-standard residues stand in square brackets, D forms with d. Residues, ends and D or L forms follow the SMILES beside them. dPhe(4-CN) = N#Cc1ccc(C[C@@H](N)C(=O)O)cc1; dPhe(2-F) = N[C@H](Cc1ccccc1F)C(=O)O; Orn = NCCC[C@H](N)C(=O)O
Everything with pEC50 lower than 9 is 0 (no); everything else, including exactly 9, is 1 (yes).

Request: Answer whether pEC50 of CC(=O)N[C@@H](CCCNC(=N)N)C(=O)N[C@H]1CCC(=O)NCCC[C@@H](C(N)=O)NC(=O)[C@H](Cc2c[nH]c3ccccc23)NC(=O)[C@H](CCCNC(=N)N)NC(=O)[C@@H](Cc2cccc(Cl)c2)NC(=O)[C@H](CCC(N)=O)NC1=O [Example 38] is greater than or equal to 9.
Result: 0 (no)

Request: Decide: is the reported value of pEC50 for CC(=O)N[C@@H](CCCNC(=N)N)C(=O)N[C@H]1CCC(=O)NCCC[C@@H](C(N)=O)NC(=O)[C@H](Cc2c[nH]c3ccccc23)NC(=O)[C@H](CCCNC(=N)N)NC(=O)[C@@H](Cc2ccccc2[N+](=O)[O-])NC(=O)[C@H](CCN)NC1=O [Example 22] equal to or greater than 9?
Result: 0 (no)

Request: Does pEC50 meet or surpass 9 for CC(=O)N[C@@H](CCCNC(=N)N)C(=O)N[C@H]1CCC(=O)NCCC[C@@H](C(N)=O)NC(=O)[C@H](Cc2c[nH]c3ccccc23)NC(=O)[C@H](CCCNC(=N)N)NC(=O)[C@@H](Cc2ccccc2Cl)NC(=O)[C@H](CO)NC1=O [Example 31] ?
Result: 0 (no)

Request: Dear colleague, could you confirm whether CC(=O)N[C@@H](CCCNC(=N)N)C(=O)N[C@H]1CCC(=O)NCCC[C@@H](C(N)=O)NC(=O)[C@H](Cc2c[nH]c3ccccc23)NC(=O)[C@H](CCCNC(=N)N)NC(=O)[C@@H](Cc2ccccc2F)NC(=O)[C@H](CCN)NC1=O [Example 9] has pEC50 at or above 9?
Result: 1 (yes)

Request: Could you tell me if the measured pEC50 of CC(=O)N[C@@H](CCCNC(=N)N)C(=O)N[C@H]1CCCNC(=O)CC[C@@H](C(N)=O)NC(=O)[C@H](Cc2c[nH]c3ccccc23)NC(=O)[C@H](CCCNC(=N)N)NC(=O)[C@@H](Cc2ccccc2F)NC(=O)[C@@H]2CCCN2C1=O [Example 105] (Ac-R[Orn]P[dPhe(2-F)]RWE-NH2; lactam 2-7) reaches 9 or more?
Result: 0 (no)

Request: I'd appreciate it if you could say whether CC(=O)N[C@@H](CCCNC(=N)N)C(=O)N[C@H]1CCC(=O)NCCC[C@@H](C(=O)O)NC(=O)[C@H](Cc2c[nH]c3ccccc23)NC(=O)[C@H](CCCNC(=N)N)NC(=O)[C@@H](Cc2ccc(C#N)cc2)NC(=O)[C@H](CCC(N)=O)NC1=O [Example 86] has pEC50 at least equal to 9.
Result: 0 (no)

Request: Test whether the compound CC(=O)N[C@@H](CCCNC(=N)N)C(=O)N[C@H]1CCCCNC(=O)C[C@@H](C(N)=O)NC(=O)[C@H](Cc2c[nH]c3ccccc23)NC(=O)[C@H](CCCNC(=N)N)NC(=O)[C@@H](Cc2ccc(C#N)cc2)NC(=O)[C@H](CCC(N)=O)NC1=O [Example 93] (Ac-RKQ[dPhe(4-CN)]RWD-NH2; lactam 2-7) records pEC50 of 9 or higher.
Result: 1 (yes)

* * *

Target Or Test System: MC1-R
Assay Remarks: Competitive inhibition binding assay using [I125]-NDP-α-MSH, MC1-R
Assay Context: membranes of B-16 mouse melanoma cells (endogenous MC1-R), in some instances HEK-293 hMC1-R
Measured Property: Ki (µM)
The answer is to be given in µM; state only the numeric part.

Request: Provide the reported Ki (system: MC1-R) for "CC(=O)N[C@@H](CCCNC(=N)N)C(=O)N[C@H]1CCC(=O)NCCC[C@@H](C(=O)O)NC(=O)[C@H](Cc2c[nH]c3ccccc23)NC(=O)[C@H](CCCNC(=N)N)NC(=O)[C@@H](Cc2cccc(Cl)c2)NC(=O)[C@H](CCCN)NC1=O"
Result: 0.023

Request: Look up MC1-R data: Ki of "CC(=O)N[C@@H](CCCNC(=N)N)C(=O)N[C@H]1CCC(=O)NCCC[C@@H](C(N)=O)NC(=O)[C@H](Cc2c[nH]c3ccccc23)NC(=O)[C@H](CCCNC(=N)N)NC(=O)[C@@H](Cc2ccc(C#N)cc2)NC(=O)[C@H](CO)NC1=O" , then report it.
Result: 10
